- Test system: S. aureus DA28823 (WT)
- assayName: MIC of antibiotics by Etest
- Format: cell-based
- runConditions: Staphylococcus aureus
Entries and their MIC values follow.
Give a bare numeral; the unit µg/mL is implied.

smiles: CC[C@H]1OC(=O)[C@H](C)[C@@H](O[C@H]2C[C@@](C)(OC)[C@@H](O)[C@H](C)O2)[C@H](C)[C@@H](O[C@@H]2O[C@H](C)C[C@H](N(C)C)[C@H]2O)[C@](C)(O)C[C@@H](C)C(=O)[C@H](C)[C@@H](O)[C@]1(C)O
u: µg/mL
MIC: 0.19

Pending compound:
### Prompt Requested field: MIC. Item: CN(C)[C@@H]1C(O)=C(C(N)=O)C(=O)[C@@]2(O)C(O)=C3C(=O)c4c(O)cccc4[C@@](C)(O)[C@H]3C[C@@H]12
### Response 0.094

----------
- System: S. aureus DA30559 (cycled with WGH)
Binning rule for recorded MIC: low group: < 0.1 µg/mL; middle group: ≥ 0.1 µg/mL and < 0.4 µg/mL; high group: ≥ 0.4 µg/mL

Example entries begin here.
molecule: CCO/N=C(\C(=O)N[C@@H]1C(=O)N2C(C(=O)[O-])=C(Sc3nc(-c4cc[n+](C)cc4)cs3)CS[C@H]12)c1nsc(N)n1
classLabel: middle group
//
molecule: CC(=O)NC[C@H]1CN(c2ccc(N3CCOCC3)c(F)c2)C(=O)O1
classLabel: high group

### Prompt GET /class?item= CC[C@H]1OC(=O)[C@H](C)[C@@H](O[C@H]2C[C@@](C)(OC)[C@@H](O)[C@H](C)O2)[C@H](C)[C@@H](O[C@@H]2O[C@H](C)C[C@H](N(C)C)[C@H]2O)[C@](C)(O)C[C@@H](C)C(=O)[C@H](C)[C@@H](O)[C@]1(C)O
### Response middle group

### Prompt Sort C[C@H]1c2cccc(O)c2C(=O)C2=C(O)[C@]3(O)C(=O)C(C(N)=O)=C(O)[C@@H](N(C)C)[C@@H]3[C@@H](O)[C@@H]21 into one of the categories.
### Response middle group

### Prompt Place this molecule in its band: CN(C)[C@@H]1C(O)=C(C(N)=O)C(=O)[C@@]2(O)C(O)=C3C(=O)c4c(O)cccc4[C@@](C)(O)[C@H]3C[C@@H]12
### Response middle group

### Prompt Dear colleague, I would appreciate it if you could identify the bin for CN[C@H](CC(C)C)C(=O)N[C@H]1C(=O)N[C@@H](CC(N)=O)C(=O)N[C@H]2C(=O)N[C@H]3C(=O)N[C@H](C(=O)N[C@H](C(=O)O)c4cc(O)cc(O)c4-c4cc3ccc4O)[C@H](O)c3ccc(c(Cl)c3)Oc3cc2cc(c3O[C@@H]2O[C@H](CO)[C@@H](O)[C@H](O)[C@H]2O[C@H]2C[C@](C)(N)[C@H](O)[C@H](C)O2)Oc2ccc(cc2Cl)[C@H]1O and reply at your convenience.
### Response high group

### Prompt Input CNC(C)C1CCC(N)C(OC2C(N)CC(N)C(OC3OCC(C)(O)C(NC)C3O)C2O)O1 (centres unmarked) ; output its category
### Response middle group

----------
- Tested on: S. aureus DA36424 (cycled with LL-37 and WGH)
# if measured MIC < 0.4 µg/mL: criterion met  # else: criterion not met

compound: CCO/N=C(\C(=O)N[C@@H]1C(=O)N2C(C(=O)[O-])=C(Sc3nc(-c4cc[n+](C)cc4)cs3)CS[C@H]12)c1nsc(N)n1
classLabel: criterion met
//
compound: CNC(C)C1CCC(N)C(OC2C(N)CC(N)C(OC3OCC(C)(O)C(NC)C3O)C2O)O1 (centres unmarked)
classLabel: criterion met
//
compound: O=C(N[C@H](CO)[C@H](O)c1ccc([N+](=O)[O-])cc1)C(Cl)Cl
classLabel: criterion not met
//
compound: CCC[C@@H]1C[C@@H](C(=O)N[C@@H]([C@H]2O[C@H](SC)[C@H](O)[C@@H](O)[C@H]2O)[C@H](C)Cl)N(C)C1
classLabel: criterion met
//
compound: CO[C@H]1/C=C/O[C@@]2(C)Oc3c(C)c(O)c4c(O)c(c(/C=N/N5CCN(C)CC5)c(O)c4c3C2=O)NC(=O)/C(C)=C\C=C\[C@H](C)[C@H](O)[C@@H](C)[C@@H](O)[C@@H](C)[C@H](OC(C)=O)[C@@H]1C
classLabel: criterion met
//
compound: CC(=O)NC[C@H]1CN(c2ccc(N3CCOCC3)c(F)c2)C(=O)O1
classLabel: criterion not met
//
compound: C[C@H]1c2cccc(O)c2C(=O)C2=C(O)[C@]3(O)C(=O)C(C(N)=O)=C(O)[C@@H](N(C)C)[C@@H]3[C@@H](O)[C@@H]21
classLabel: criterion met
//
compound: CC[C@H]1OC(=O)[C@H](C)[C@@H](O[C@H]2C[C@@](C)(OC)[C@@H](O)[C@H](C)O2)[C@H](C)[C@@H](O[C@@H]2O[C@H](C)C[C@H](N(C)C)[C@H]2O)[C@](C)(O)C[C@@H](C)C(=O)[C@H](C)[C@@H](O)[C@]1(C)O
classLabel: criterion met
//
compound: CN(C)c1cc(NC(=O)CNC(C)(C)C)c(O)c2c1C[C@H]1C[C@H]3[C@H](N(C)C)C(O)=C(C(N)=O)C(=O)[C@@]3(O)C(O)=C1C2=O
classLabel: criterion met
//
compound: CN(C)[C@@H]1C(O)=C(C(N)=O)C(=O)[C@@]2(O)C(O)=C3C(=O)c4c(O)cccc4[C@@](C)(O)[C@H]3C[C@@H]12
classLabel: criterion met

Now consider the entry below.
### Prompt Is 0.4 µg/mL strictly greater than the compound's reported MIC? compound: CN[C@H](CC(C)C)C(=O)N[C@H]1C(=O)N[C@@H](CC(N)=O)C(=O)N[C@H]2C(=O)N[C@H]3C(=O)N[C@H](C(=O)N[C@H](C(=O)O)c4cc(O)cc(O)c4-c4cc3ccc4O)[C@H](O)c3ccc(c(Cl)c3)Oc3cc2cc(c3O[C@@H]2O[C@H](CO)[C@@H](O)[C@H](O)[C@H]2O[C@H]2C[C@](C)(N)[C@H](O)[C@H](C)O2)Oc2ccc(cc2Cl)[C@H]1O
### Response criterion not met

----------
- System: S. aureus DA30559 (cycled with WGH)
Items are presented alongside their recorded MIC.
Please reply with the bare figure in µg/mL and do not write the unit itself.

Answered examples (2):
smiles: CN(C)c1cc(NC(=O)CNC(C)(C)C)c(O)c2c1C[C@H]1C[C@H]3[C@H](N(C)C)C(O)=C(C(N)=O)C(=O)[C@@]3(O)C(O)=C1C2=O
MIC, µg/mL: 0.094
--
smiles: CCC[C@@H]1C[C@@H](C(=O)N[C@@H]([C@H]2O[C@H](SC)[C@H](O)[C@@H](O)[C@H]2O)[C@H](C)Cl)N(C)C1
MIC, µg/mL: 0.064

### Prompt For the molecule shown here, O=C(N[C@H](CO)[C@H](O)c1ccc([N+](=O)[O-])cc1)C(Cl)Cl , give the reported MIC.
### Response 4

### Prompt Quick check: MIC of CO[C@H]1/C=C/O[C@@]2(C)Oc3c(C)c(O)c4c(O)c(c(/C=N/N5CCN(C)CC5)c(O)c4c3C2=O)NC(=O)/C(C)=C\C=C\[C@H](C)[C@H](O)[C@@H](C)[C@@H](O)[C@@H](C)[C@H](OC(C)=O)[C@@H]1C ?
### Response 0.016
